List of Kochia plant response rating (0 to 100 scale) values.
# Test system: kochia (Bassia scoparia)
# procedure summary: Test C preemergence, visual plant response rating
# Format: in vivo
# settings: Test C, 125 g ai/ha, 0 is no effect, 100 is complete control
Response field accepts a number only; no unit should be typed.

# assay system kochia (Bassia scoparia): give Kochia plant response rating (0 to 100 scale) of CC(C)O/N=C(\c1c(O)c(Cl)nn(C)c1=O)c1cc(Br)cc2ccccc12 [Compound 233]
0

# assay system kochia (Bassia scoparia): give Kochia plant response rating (0 to 100 scale) of CCOc1cccc(C(=NOC)c2c(O)c(C)nn(C)c2=O)c1 [Compound 200]
0

# assay system kochia (Bassia scoparia): give Kochia plant response rating (0 to 100 scale) of CO/N=C(\c1cc(Cl)c(F)c(Cl)c1)c1c(O)c(C)nn(C)c1=O [Compound 290]
0

# assay system kochia (Bassia scoparia): give Kochia plant response rating (0 to 100 scale) of CO/N=C(/c1cccc(/C=C/Cl)c1)c1c(O)c(C)nn(C)c1=O [Compound 285]
0

# assay system kochia (Bassia scoparia): give Kochia plant response rating (0 to 100 scale) of CON=C(c1cc(F)cc(F)c1F)c1c(O)c(C)nn(C)c1=O [Compound 227]
10

More entries:
# assay system kochia (Bassia scoparia): give Kochia plant response rating (0 to 100 scale) of C#CCO/N=C(/c1cccc(Br)c1)c1c(O)c(C)nn(C)c1=O [Compound 277]
90

# assay system kochia (Bassia scoparia): give Kochia plant response rating (0 to 100 scale) of CO/N=C(\c1cccc(/C=C/Cl)c1)c1c(O)c(C)nn(C)c1=O [Compound 286]
0

* * *

# Test system: wheat (Triticum aestivum)
# procedure summary: Test C postemergence, visual plant response rating
# Assay type: in vivo
# settings: Test C, postemergence, 125 g ai/ha
Everything with Wheat plant response rating (0 to 100 scale) lower than 50 is class 0; everything else, including exactly 50, is class 1.

Would you say C#CCO/N=C(\c1cccc(Br)c1)c1c(O)c(C)nn(C)c1=O [Compound 278] shows Wheat plant response rating (0 to 100 scale) at minimum 50?
class 1

Would you say C#CCO/N=C(\c1ccc(F)c(Br)c1)c1c(O)c(C)nn(C)c1=O [Compound 164] shows Wheat plant response rating (0 to 100 scale) at minimum 50?
class 1

Would you say CO/N=C(\c1c(O)c(Cl)nn(C)c1=O)c1ccc(F)c2ccccc12 [Compound 208] shows Wheat plant response rating (0 to 100 scale) at minimum 50?
class 0

* * *

List of Kochia plant response rating values.
# Tested on: kochia (Kochia scoparia)
# procedure summary: Test A postemergence, visual plant response rating
# Type: in vivo
# settings: Postemergence, 125 g ai/ha; 0 to 100 scale (0 no effect, 100 complete control)
Response field accepts a number only; no unit should be typed.

Return reported Kochia plant response rating. Input compound: CO/N=C(/c1cccc(C)c1)c1c(O)c(C2CC2)nn(C)c1=O
0

Return reported Kochia plant response rating. Input compound: CON=C(c1cccc(C(F)(F)F)c1)c1c(O)c(C)nn(C)c1=O
20

Return reported Kochia plant response rating. Input compound: C=CCON=C(c1c(O)c(C)nn(C)c1=O)c1cc(Br)cc2ccccc12
30

* * *

# Tested on: Italian ryegrass (Lolium multiflorum)
# procedure summary: Test A postemergence, visual plant response rating
# Assay type: in vivo
# settings: 500 g ai/ha, postemergence; 0 is no effect, 100 is complete control
List of Ryegrass, Italian plant response rating (0 to 100 scale) values.
Response field accepts a number only; no unit should be typed.

Return reported Ryegrass, Italian plant response rating (0 to 100 scale). Input compound: CON=C(c1cccc(C(F)(F)F)c1)c1c(O)c(C)nn(C)c1=O [Compound 56]
50

Return reported Ryegrass, Italian plant response rating (0 to 100 scale). Input compound: CCO/N=C(\c1cccc(C)c1C)c1c(O)c(C)nn(C)c1=O [Compound 25]
40

Return reported Ryegrass, Italian plant response rating (0 to 100 scale). Input compound: CCC(=O)Oc1c(C)nn(C)c(=O)c1C(=NOC)c1cccc2ccccc12 [Compound 49]
80

Return reported Ryegrass, Italian plant response rating (0 to 100 scale). Input compound: CON=C(c1c(O)c(C)nn(C)c1=O)c1cccc2cc(F)ccc12 [Compound 119]
90

Return reported Ryegrass, Italian plant response rating (0 to 100 scale). Input compound: CO/N=C(\c1cccc(C)c1F)c1c(O)c(C)nn(C)c1=O [Compound 50]
80

More entries:
Return reported Ryegrass, Italian plant response rating (0 to 100 scale). Input compound: CO/N=C(\c1c(O)c(C)nn(C)c1=O)c1cc(Br)cc2ccccc12 [Compound 91]
100

Return reported Ryegrass, Italian plant response rating (0 to 100 scale). Input compound: CON=C(c1c(O)c(C)nn(C)c1=O)c1csc2ccccc12 (single isomer, unassigned) [Compound 45]
20

Return reported Ryegrass, Italian plant response rating (0 to 100 scale). Input compound: CO/N=C(/c1cscc1C)c1c(O)c(C)nn(C)c1=O [Compound 140]
60

Return reported Ryegrass, Italian plant response rating (0 to 100 scale). Input compound: CO/N=C(/c1c(O)c(C)nn(C)c1=O)c1cc(Br)cc2ccccc12 [Compound 99]
90
